Reference source for all entries: patent US11566007B2

Quick list: pIC50 per entry.
- target: KRAS G12V (Homo sapiens (Human), UniProt P01116+P62937, G12V)
- Sequence (P01116-2 other isoform, or with tags, fused parts or gaps G12V): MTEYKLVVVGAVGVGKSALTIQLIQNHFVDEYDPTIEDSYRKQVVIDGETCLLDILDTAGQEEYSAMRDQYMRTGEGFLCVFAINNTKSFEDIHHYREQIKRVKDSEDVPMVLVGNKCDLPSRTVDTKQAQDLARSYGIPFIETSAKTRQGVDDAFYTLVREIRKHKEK
- Sequence (P62937 whole entry): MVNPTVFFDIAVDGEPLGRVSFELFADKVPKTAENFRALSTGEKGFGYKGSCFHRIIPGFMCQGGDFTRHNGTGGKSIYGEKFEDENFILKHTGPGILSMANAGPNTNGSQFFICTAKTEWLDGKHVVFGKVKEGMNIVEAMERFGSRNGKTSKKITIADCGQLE
- protocolSummary: Ras-Raf (BRAF RBD) disruption / FRET / MOA assay, KRAS G12V
- Type: biochemical
- experimentalParameters: read-out: IC50* KRAS G12V FRET data
pIC50: −log10 of the molar value.
parameterMeasured: pIC50

[[record]]
compound = "C=CC(=O)N1CC[C@H](C(=O)N(C)[C@@H](C(=O)N[C@H]2Cc3cc(O)cc(c3)-c3ccc4c(c3)c(c(-c3cccc(CN(C)C)c3)n4CC)CC(C)(C)COC(=O)[C@@H]3CCCN(N3)C2=O)C(C)C)C1 [Example A106]"
reported = "< 5.00"

[[record]]
compound = "CCn1c(-c2cccnc2[C@H](C)OC)c2c3cc(ccc31)-c1cccc(c1)C[C@H](NC(=O)[C@H](C(C)C)N1CC[C@]3(CCN(C(=O)C#C[C@H]4COCCN4C4COC4)C3)C1=O)C(=O)N1CCC[C@H](N1)C(=O)OCC(C)(C)C2 (atropisomer, axis not shown) [Example A568]"
reported = "< 5.00"

[[record]]
compound = "C=CC(=O)N1CCN(C(=O)N(C)[C@H](C(=O)N[C@H]2Cc3nc(cs3)-c3ccc4c(c3)c(c(-c3cccnc3[C@H](C)OC)n4CC)CC(C)(C)COC(=O)[C@@H]3CCCN(N3)C2=O)C(C)C)C[C@H]1C (atropisomer, axis not shown) [Example A432]"
reported = "6.00 to 7.00"

[[record]]
compound = "C=CS(=O)(=O)N1CC2(CCN([C@H](C(=O)N[C@H]3Cc4cc(O)cc(c4)-c4ccc5c(c4)c(c(-c4cccnc4[C@H](C)OC)n5CC)CC(C)(C)COC(=O)[C@@H]4CCCN(N4)C3=O)C(C)C)C2=O)C1 (atropisomer, axis not shown) [Example A297]"
reported = "6.00 to 7.00"

[[record]]
compound = "C=CC(=O)N1CC[C@H](C(=O)N(C)[C@H](C(=O)NN2Cc3cc(O)cc(c3)-c3ccc4c(c3)c(c(-c3cccnc3[C@H](C)OC)n4CC)CC(C)(C)COC(=O)[C@@H]3CCCN(N3)C2=O)C(C)C)C1 (atropisomer, axis not shown) [Example A233]"
reported = "7.00 to 8.00"

[[record]]
compound = "C=CC(=O)N1CC[C@H](C(=O)N(C)[C@H](C(=O)N[C@H]2Cc3cc(cc(C(F)F)c3)-c3ccc4c(c3)c(c(-c3cccnc3[C@H](C)OC)n4CC(F)(F)F)CC(C)(C)COC(=O)[C@@H]3CCCN(N3)C2=O)C(C)C)C1 (atropisomer, axis not shown) [Example A372]"
reported = "5.00 to 6.00"

[[record]]
compound = "CCn1c(-c2cccnc2[C@H](C)OC)c2c3cc(ccc31)-c1csc(n1)C[C@H](NC(=O)[C@H](C(C)C)N(C)C(=O)N1CCC13CN(C(=O)/C=C/CN(C)C)C3)C(=O)N1CCC[C@H](N1)C(=O)OCC(C)(C)C2 (atropisomer, axis not shown) [Example A598]"
reported = "6.00 to 7.00"

[[record]]
compound = "C=CC(=O)N1CC2(CCN(C(=O)N(C)[C@H](C(=O)N[C@H]3Cc4nc(cs4)-c4ccc5c(c4)c(c(-c4cccnc4[C@H](C)OC)n5CC)CC(C)(C)COC(=O)[C@@H]4CCCN(N4)C3=O)C(C)C)CC2)C1 (atropisomer, axis not shown) [Example A394]"
reported = "6.00 to 7.00"

